Reference source: PubChem BioAssay AID1159580

# protocol.text: chemical genetic growth profiling, strain panel (AID 1159580);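 note: tested at 20 µM; growth read once vehicle control cultures reached saturation at 30 °C; 1 = growth at the plate median or of vehicle wells; lower values mean less growth of the strain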
# test.settings: S. cerevisiae deletion strains, growth OD, locus YLL041C, strain sdh2, stronger effect = lower value
About 2,000 (36%) of roughly 5,500 compounds were called active. About 18% were inconclusive and are not listed. Some of the results follow.
recorded.endpoint: normalized growth

1) CC(=O)N[C@@H](CS)C(=O)O ... 1.01
2) O=C1CC2OCC=C3CN4CC[C@]56c7ccccc7N1C5[C@H]2[C@H]3CC46 (stereo partly specified) ... 1.02
3) O=c1[nH]oc2c1CCNC2 ... 1.01
4) C=CC(N)CCC(=O)O (stereo unspecified) ... 0.981
5) CCC(C)(C)C(=O)O[C@H]1C[C@@H](C)C=C2C=C[C@H](C)[C@H](CC[C@@H]3C[C@@H](O)CC(=O)O3)[C@H]21 ... 1.01
6) O=C1OC(c2ccc(O)cc2)(c2ccc(O)cc2)c2ccccc21 ... 0.979
7) CC[C@H](C)C(=O)O[C@H]1C[C@@H](C)C=C2C=C[C@H](C)[C@H](CC[C@@H]3C[C@@H](O)CC(=O)O3)[C@H]21 ... 1
8) COC(=O)C1=CCCN(C)C1 ... 0.991
9) CC1=CC2C(CC1=O)C(C)=CCC2C(C)C (stereo unspecified) ... 1
10) CCN(CC)C(=O)c1cccc(C)c1 ... 1.03
11) O=C1[C@H](CCC(O)c2ccc(F)cc2)[C@@H](c2ccc(O)cc2)N1c1ccc(F)cc1 (stereo partly specified) ... 0.967

---

# protocol.text: chemical genetic growth profiling, strain panel (AID 1159580);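 note: tested at 20 µM; growth read once vehicle control cultures reached saturation at 30 °C; 1 = growth at the plate median or of vehicle wells; lower values mean less growth of the strain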
# test.settings: S. cerevisiae deletion strains, growth OD, locus YHR200W, strain rpn10, stronger effect = lower value
Hit rate of the full screen: of about 5,500 compounds, about 2,000 (36%) were called active. Inconclusive results (about 18%) are left out. The list shows a part of the results.
recorded.endpoint: normalized growth

1) CC1=CC2C(CC1=O)C(C)=CCC2C(C)C (stereo not given) ... 0.968
2) CN1C(C(=O)Nc2ccccn2)=C(O)c2ccccc2S1(=O)=O ... 0.972
3) CC1(C)O[C@@H]2CC3C4CCC5=CC(=O)CCC5(C)C4(F)C(O)CC3(C)[C@]2(C(=O)CCl)O1 (stereo not given in full) ... 0.988
4) COC(=O)C(O)c1ccccc1 (stereo not given) ... 0.963
5) CCCCNc1ccc(C(=O)OCCN(C)C)cc1 ... 1.02
6) COc1cc([C@@H]2c3cc4c(c(O)c3C[C@H]3COC(=O)[C@@H]32)OCO4)cc(OC)c1OC ... 0.975
7) Oc1ccc(Cl)cc1 ... 0.98
8) COc1c2ccoc2c(OC)c2oc(=O)ccc12 ... 0.936
9) CCCCN(CCCC)CCCOC(=O)c1ccc(N)cc1 ... 0.996
10) O=C1CC2OCC=C3CN4CC[C@]56c7ccccc7N1C5[C@H]2[C@H]3CC46 (stereo not given in full) ... 1
11) Oc1ccc(Cl)cc1Cc1cc(Cl)ccc1O ... 0.0673
12) C[N+]1(C)C2CC(OC(=O)[C@@H](CO)c3ccccc3)CC1C1OC12 (stereo not given in full) ... 1.02
13) CCCCCCOc1ccccc1C(N)=O ... 0.804
14) COC(=O)C[C@H]1C(C)(C)C(=O)[C@@H]2CC3=C(CC[C@]4(C)C3=CC(=O)O[C@H]4c3ccoc3)[C@@]1(C)C2=O ... 0.996
15) O=S1OCC2C(CO1)C1(Cl)C(Cl)=C(Cl)C2(Cl)C1(Cl)Cl (stereo not given) ... 0.972
16) O=C(O)CN(CC(=O)O)Cc1cc2c(-c3ccccc3C(=O)O)c3cc(CN(CC(=O)O)CC(=O)O)c(=O)cc-3oc2cc1O ... 1.02
17) C=C1C(C)C2C(Cc3ccccc3)NC(=O)C23OC(=O)/C=C/C(O)CCCC(C)C/C=C/C3C1O (stereo not given) ... 1
18) CCCCOC(=O)c1ccccc1C(=O)OCCCC ... 0.985
19) CC1(C)O[C@H]2[C@H](O)C[C@](O)(C(N)=O)C[C@H]2O1 ... 1.05
20) CC[C@H](C)C(=O)O[C@H]1CCC=C2C=C[C@H](C)C(CCC3C[C@@H](O)CC(=O)O3)[C@H]21 (stereo not given in full) ... 0.978
21) CC[C@H](C)C(=O)O[C@H]1C[C@@H](C)C=C2C=C[C@H](C)[C@H](CC[C@@H]3C[C@@H](O)CC(=O)O3)[C@H]21 ... 0.994
22) COc1ccc([C@H]2Oc3cc(OC)cc(OC)c3C[C@H]2O)cc1 ... 1.03
23) C=C1C(C)C2C(Cc3ccccc3)NC(=O)C23OC(=O)/C=C/C(=O)CCCC(C)C/C=C/C3C1O (stereo not given) ... 1.01
24) CCC(C)c1cnc(CC(C)C)c(=O)n1O (stereo not given) ... 0.961
25) O=C(C1CCCCC1)N1CC(=O)N2CCc3ccccc3C2C1 (stereo not given) ... 1.01
26) O=C(O)CN1C(=O)c2cccc3cccc(c23)C1=O ... 0.972
27) Cc1cccc(C(=O)O)c1O ... 1.02
28) CCCC(=O)O[C@]1(C(=O)CO)CCC2[C@@H]3CCC4=CC(=O)CC[C@]4(C)C3[C@@H](O)C[C@@]21C (stereo not given in full) ... 0.994
29) CCCCOC(=O)c1ccc(N)cc1 ... 0.933
30) CC(C)C(=O)Nc1ccc([N+](=O)[O-])c(C(F)(F)F)c1 ... 0.963
31) C=CCSCC1Nc2cc(Cl)c(S(N)(=O)=O)cc2S(=O)(=O)N1 (stereo not given) ... 1.03
32) COc1c(OC)c2occc2c2oc(=O)ccc12 ... 0.923
33) COc1ccc2c(c1)O[C@H]1c3ccc(OC)cc3OC[C@@H]21 ... 0.944
34) Cc1cccc(Nc2ccccc2C(=O)O)c1C ... 0.872
35) NC(=O)c1cccc(N)c1 ... 0.993
36) CCC(C)(C)C(=O)O[C@H]1C[C@@H](C)C=C2C=C[C@H](C)[C@H](CC[C@@H]3C[C@@H](O)CC(=O)O3)[C@H]21 ... 1.03
37) COc1ccc2c(c1OC)C(=O)OC2[C@H]1c2c(cc3c(c2OC)OCO3)CCN1C (stereo not given in full) ... 0.98
38) CCOC(=O)[C@H](CCc1ccccc1)N[C@@H](C)C(=O)N1[C@H](C(=O)O)C[C@@H]2CCC[C@@H]21 ... 1.02
39) CC(C(=O)O)c1ccc(C(=O)c2cccs2)cc1 (stereo not given) ... 1.01
40) CC1(C)C2CC(=O)[C@]3(C)C(CC[C@@]4(C)[C@H](c5ccoc5)OC(=O)[C@H]5O[C@]543)[C@@]2(C)C=C[C@@H]1O (stereo not given in full) ... 0.975
41) Nc1ccn(C2O[C@H](CO)[C@@H](O)[C@@H]2O)c(=O)n1 (stereo not given in full) ... 1
42) O=C1NC(=O)C(=O)C(=O)N1 ... 0.993
43) CC(C)[C@@H]1CC[C@@H](C)C[C@H]1O ... 1.02
44) CCN(CC)C(=O)c1cccc(C)c1 ... 0.998
45) Cc1c(Cl)cccc1Nc1ccccc1C(=O)O ... 0.789

---

Measured normalized growth accompanies every entry in the list below.
# protocol.text: chemical genetic growth profiling, strain panel (AID 1159580);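 note: tested at 20 µM; growth read once vehicle control cultures reached saturation at 30 °C; 1 = growth at the plate median or of vehicle wells; lower values mean less growth of the strain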
# test.settings: S. cerevisiae deletion strains, growth OD, locus YBR231C, strain swc5, stronger effect = lower value
Hit rate of the full screen: of about 5,500 compounds, about 2,000 (36%) were called active. Roughly 18% stayed inconclusive and do not appear here. The list shows a part of the results.
recorded.endpoint: normalized growth

1) O=C1OC2(c3ccc(O)cc3Oc3cc(O)ccc32)c2ccccc21 ... 1
2) O=C1OC(c2ccc(O)cc2)(c2ccc(O)cc2)c2ccccc21 ... 0.974
3) O=C(O)c1ccccc1-c1c2cc(Br)c(=O)cc-2oc2[c]([Hg])c(O)c(Br)cc12 ... 1.04
4) C=CCSCC1Nc2cc(Cl)c(S(N)(=O)=O)cc2S(=O)(=O)N1 (stereo unspecified) ... 0.985
5) C=CC(N)CCC(=O)O (stereo unspecified) ... 0.99
6) OC(Cn1cncn1)(Cn1cncn1)c1ccc(F)cc1F ... 0.981

---

# protocol.text: chemical genetic growth profiling, strain panel (AID 1159580);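 note: tested at 20 µM; growth read once vehicle control cultures reached saturation at 30 °C; 1 = growth at the plate median or of vehicle wells; lower values mean less growth of the strain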
# test.settings: S. cerevisiae deletion strains, growth OD, locus YBR009C, strain hhf1, stronger effect = lower value
Out of some 5,500 compounds screened, about 2,000 (36%) were called active. Another 18% or so got no clear call; they are omitted. The list shows a part of the results.
Lab note: anything with normalized growth below 1 is marked met; values at 1 or higher are marked not met.

1) CN1C(C(=O)Nc2ccccn2)=C(O)c2ccccc2S1(=O)=O ... met
2) C[C@@H]1C(=O)OC2[C@H](O)C34[C@@H]5OC(=O)[C@@]3(O[C@@H]3OC(=O)[C@H](O)[C@@]34[C@H](C(C)(C)C)[C@H]5O)[C@]21O (some centres undefined) ... met
3) CC(C)C(=O)Nc1ccc([N+](=O)[O-])c(C(F)(F)F)c1 ... not met
4) C=C1C(=O)O[C@@H]2C[C@@]3(C)CCC[C@H](C)C3=C[C@H]12 ... met
